# systemTested: ERα (Homo sapiens)
# Sequence (P03372 whole entry): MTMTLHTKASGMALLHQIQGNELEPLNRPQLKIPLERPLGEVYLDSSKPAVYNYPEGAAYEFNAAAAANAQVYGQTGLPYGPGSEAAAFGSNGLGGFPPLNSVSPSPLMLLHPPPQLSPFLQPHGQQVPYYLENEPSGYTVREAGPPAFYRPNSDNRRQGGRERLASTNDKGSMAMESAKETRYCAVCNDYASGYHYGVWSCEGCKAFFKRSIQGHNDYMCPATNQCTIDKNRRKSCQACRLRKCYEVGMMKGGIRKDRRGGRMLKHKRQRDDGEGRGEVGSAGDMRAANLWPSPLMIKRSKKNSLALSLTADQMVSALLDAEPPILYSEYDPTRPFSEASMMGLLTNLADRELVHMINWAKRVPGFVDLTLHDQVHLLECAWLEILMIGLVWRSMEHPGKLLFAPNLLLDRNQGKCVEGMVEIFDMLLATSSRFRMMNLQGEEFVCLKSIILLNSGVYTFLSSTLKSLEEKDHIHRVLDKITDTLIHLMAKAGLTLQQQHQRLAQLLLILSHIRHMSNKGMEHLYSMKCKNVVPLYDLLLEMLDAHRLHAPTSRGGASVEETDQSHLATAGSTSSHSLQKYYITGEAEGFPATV
# assayProcedure: Degradation of ERα in T-47D cells (immunoblotting, 4 h)
# Type: cell-based
# Parameters: host or cells: T-47D
# cond: 10nM compound
reportedProperty: Degradation rate (%) of ERα in T-47D cells

| molecule | recordedValue |
| --- | --- |
| O=C1CCC(N2Cc3c(ccc4c3OCC43CCN(C[C@H]4CC[C@H](C#Cc5ccc([C@@H]6c7ccc(O)cc7CC[C@@H]6c6ccccc6)cc5)CC4)CC3)C2=O)C(=O)N1 (some centres unmarked) | 43 |
| O=C1CCC(N2Cc3c(ccc4c3OCC43CCN(C4CC5(CCN(c6ccc([C@@H]7c8ccc(O)cc8CC[C@@H]7c7ccccc7)cc6)CC5)C4)CC3)C2=O)C(=O)N1 (some centres unmarked) | 64 |

a: O=C1CCC(N2Cc3c(ccc4c3OC3(CC4)CCN(C4CC5(CCN(c6ccc([C@@H]7c8ccc(O)cc8CC[C@@H]7c7ccccc7)cc6)CC5)C4)CC3)C2=O)C(=O)N1 (some centres unmarked)
b: C[C@@H]1Cc2c(ccc3[nH]ncc23)[C@@H](c2c(F)cc(N3CCC4(CCN(C(=O)CN5CCC6(CC5)COc5c6ccc6c5CN(C5CCC(=O)NC5=O)C6=O)C4)CC3)cc2F)N1CC(F)F (some centres unmarked)
*Q* Kindly identify which of a and b has the larger recorded Degradation rate (%) of ERα in T-47D cells value. Field: selected label. Fill in the label of the entry you choose.
*A* b
(b: 66%, a: 21%)

* * *

# Tested on: T-47D cells
# assayProcedure: Inhibition of cell proliferation in T-47D cells (CCK-8, 6 days)
# Assay type: cell-based
# cond: 6 days of treatment, Table 3
pIC50: −log10 of the molar value.
reportedProperty: pIC50

| compound | recordedValue |
| --- | --- |
| O=C1CCC(N2Cc3c(ccc4c3OCC43CCN(C4CCN(C5CC6(CCN(c7ccc([C@@H]8c9ccc(O)cc9CC[C@@H]8c8ccccc8)cc7)CC6)C5)[C@@H](C(=O)N5CCC(F)(F)CC5)C4)CC3)C2=O)C(=O)N1 (stereo partly drawn) | 8.68 |

P: C[C@@H]1Cc2c([nH]c3ccccc23)[C@@H](c2c(F)cc(N3CCC4(CCN(CC(=O)N5CCC6(CC5)COc5c6ccc6c5CN(C5CCC(=O)NC5=O)C6=O)CC4)CC3)cc2F)N1CC(F)F (stereo partly drawn)
Q: O=C1CCC(N2Cc3c(ccc4c3OCC43CCN(C4CCN(C5CCN(c6ccc([C@@H]7c8ccc(O)cc8CC[C@@H]7c7ccccc7)cc6)CC5)CC4)CC3)C2=O)C(=O)N1 (stereo partly drawn)
*Q* Lab note: check whether P or Q has the lower measured pIC50. Bench note: the answer is the label of the chosen record.
*A* Q
(Q: 8.21, P: 8.70)

* * *

# systemTested: UniProt P03372
# assayProcedure: Degradation of ERα in MCF-7 cells (immunoblotting, 4 h)
# Assay type: cell-based
# cond: 10nM compound
reportedProperty: Degradation rate (%) of ERα in MCF-7 cells

Some solved cases for reference:
| molecule | systemTested | recordedValue |
| --- | --- | --- |
| O=C1CCC(N2Cc3c(ccc4c3OCC43CCN(C4CCN(C5CCN(c6ccc([C@@H]7c8ccc(O)cc8CC[C@@H]7c7ccccc7)cc6)CC5)CC4F)CC3)C2=O)C(=O)N1 (some centres unmarked) [H34] | UniProt P03372 | 65 |
| O=C1CCC(N2Cc3cc4c(cc3C2=O)OC2(CC4)CN(C3CCN(C(=O)C4CCN(c5ccc([C@@H]6c7ccc(O)cc7CC[C@@H]6c6ccccc6)cc5)CC4)CC3)C2)C(=O)N1 (some centres unmarked) [A82] | UniProt P03372 | 51 |
| C[C@@H]1Cc2c(ccc3[nH]ncc23)C(c2ccc(N3CCC4(CC3)CC(N3CC[C@@H](N5CCC6(CC5)COc5c6ccc6c5CN(C5CCC(=O)NC5=O)C6=O)[C@@H](F)C3)C4)cn2)N1CC(F)(F)F (some centres unmarked) [H58] | UniProt P03372 | 70 |

I: C[C@@H]1Cc2c(ccc3[nH]ncc23)[C@@H](c2c(F)cc(N3CCC4(CCN(CC(=O)N5CCC6(CC5)COc5c6ccc6c5CN(C5CCC(=O)NC5=O)C6=O)C4)CC3)cc2F)N1CC(F)F (some centres unmarked) [C11]
II: O=C1CCC(N2Cc3c(ccc4c3OCC43CCN(C4CC5(CCC6(CC5)CN(c5ccc([C@@H]7c8ccc(O)cc8CC[C@@H]7c7ccccc7)cc5)C6)C4)CC3)C2=O)C(=O)N1 (some centres unmarked) [A81]
*Q* So which one has the bigger Degradation rate (%) of ERα in MCF-7 cells here, I or II ? Lab log: write the label of the selected item as the result.
*A* I
(I: 69%, II: 20%)
